Form field: Emax (one value per entry).
Assay: Cytotoxicity against African green monkey Vero E6 cells expressing ACE2 cells assessed as reduction in cell viability relative to control
Conditions: chlorocebus sabaeus
The number alone won't do; follow it with the unit.

Guide cases for Emax, answers given:
>  <compound>
CC(Nc1nc(N2CCNCC2)nc2ccc(-c3ccccc3)cc12)c1ccccc1 (centres undefined)

>  <observed>
88.5%

$$$$
>  <compound>
CC(Nc1nc(N2CCOCC2)nc2ccccc12)c1ccccc1 (centres undefined)

>  <observed>
23%

$$$$
>  <compound>
CC(Nc1nc(N2CCNCC2)nc2cc(Br)ccc12)c1ccccc1 (centres undefined)

>  <observed>
91.5%

$$$$
>  <compound>
CC(Nc1nc(N2CCNCC2)nc2ccccc12)c1ccccc1N (centres undefined)

>  <observed>
0%

$$$$
>  <compound>
CC(Nc1nc(N2CCNCC2)nc2ccc(F)cc12)c1ccccc1 (centres undefined)

>  <observed>
11.8%

$$$$

Prompt line: For CC(Nc1nc(N2CCNCC2)nc2ccccc12)c1c(F)cccc1F (centres undefined) , what is its reported Emax?
Response line: 12.8%

Prompt line: For CC(Nc1nc(N2CCNCC2)nc2cc(-c3ccccc3)ccc12)c1ccccc1 (centres undefined) , what is its reported Emax?
Response line: 116%

Prompt line: For "C[C@H](Nc1nc(N2CCNCC2)nc2ccccc12)c1ccccc1" , what is its reported Emax?
Response line: 0%

Prompt line: For CC(Nc1nc(N2CCC(=O)CC2)nc2ccccc12)c1ccccc1 (centres undefined) , what is its reported Emax?
Response line: 0%

----------
Form field: IC50 (one value per entry).
Tested on: Vero C1008
Test: Cytotoxicity against African green monkey Vero E6 cells expressing ACE2 cells assessed as reduction in cell viability
Details: Chlorocebus sabaeus
Express the result in µM but write the number alone.

Guide cases for IC50, answers given:
>  <compound>
CC(Nc1nc(N2CCNCC2)nc2cc(-c3ccccc3)ccc12)c1ccccc1 (configuration not stated)

>  <target_or_test_system>
Vero C1008

>  <unit_symbol>
µM

>  <IC50>
7.94

$$$$
>  <compound>
CC(Nc1nc(N2CCNCC2)nc2cc(Br)ccc12)c1ccccc1 (configuration not stated)

>  <target_or_test_system>
Vero C1008

>  <unit_symbol>
µM

>  <IC50>
14.1

$$$$

Field: next compound
Prompt line: For CC(Nc1nc(N2CCNCC2)nc2ccc(-c3ccccc3)cc12)c1ccccc1 (configuration not stated) , what is its reported IC50?
Response line: 14.1

----------
Form field: Emax (one value per entry).
Assay: Cytotoxicity against HEK293 cells expressing ACE2 cells assessed as reduction in cell viability relative to control
Details: human
Express the result in % but write the number alone.

Guide cases for Emax, answers given:
>  <molecule>
CC(Nc1nc(N2CCNCC2)nc2ccccc12)c1c(F)cccc1F (stereo unspecified)

>  <Emax [%]>
0

$$$$
>  <molecule>
CC(Nc1nc(N2CCNCC2)nc2ccc(-c3ccccc3)cc12)c1ccccc1 (stereo unspecified)

>  <Emax [%]>
20.8

$$$$
>  <molecule>
CC(Nc1nc(N2CCC(=O)CC2)nc2ccccc12)c1ccccc1 (stereo unspecified)

>  <Emax [%]>
0

$$$$

Prompt line: For CC(Nc1nc(N2CCOCC2)nc2ccccc12)c1ccccc1 (stereo unspecified) , what is its reported Emax?
Response line: 25.1

Prompt line: For CC(Nc1nc(N2CCNCC2)nc2cc(-c3ccccc3)ccc12)c1ccccc1 (stereo unspecified) , what is its reported Emax?
Response line: 96.7

Prompt line: For CC(Nc1nc(N2CCNCC2)nc2ccc(F)cc12)c1ccccc1 (stereo unspecified) , what is its reported Emax?
Response line: 0
